test system: Wnt pathway (Sp5-Luc reporter, TCF/LEF binding sites) in SW480 colon carcinoma cells; test: Screening assay for Wnt activity: Sp5-Luc reporter gene assay; type: cell-based, human; settings: Homo sapiens; Sp5-Luc reporter, SW480 cells, 36 to 48 hours;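 further: firefly luciferase luminescence read in stably transduced SW480 cells carrying the Sp5 promoter reporter with eight TCF/LEF sites, compounds given in 0.1% DMSO final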
OBSERVATION_TYPE: pEC50
In simple prose, pEC50 is minus the logarithm base ten of a concentration in moles per litre.

[ask] Report pEC50 for Cc1ncc(-c2ccc3cnc(NC(=O)[C@H]4CC[C@H](N(C)C)CC4)cc3c2)o1 [Compound 1082] tested on Wnt pathway (Sp5-Luc reporter, TCF/LEF binding sites) in SW480 colon carcinoma cells.
[reply] 5.00

[ask] Request: pEC50, test system Wnt pathway (Sp5-Luc reporter, TCF/LEF binding sites) in SW480 colon carcinoma cells, entry Cc1nnc(-c2ccc3cnc(NC(=O)[C@H]4CC[C@H](CO)CC4)cc3c2)s1
[reply] 5.98

[ask] // lookup pEC50 | system=Wnt pathway (Sp5-Luc reporter, TCF/LEF binding sites) in SW480 colon carcinoma cells | key= [2H]c1nc(NC(=O)C2CCNCC2)cc2cc(-c3cnn(C)c3)ccc12
[reply] 5.66

[ask] Item: Cn1cc(-c2ccc3cnc(NC(=O)CN4CCC(C(F)(F)F)CC4)cc3c2)cn1 Test system: Wnt pathway (Sp5-Luc reporter, TCF/LEF binding sites) in SW480 colon carcinoma cells Read-out: pEC50 Value: ?
[reply] 5.29

[ask] Query pEC50 on Wnt pathway (Sp5-Luc reporter, TCF/LEF binding sites) in SW480 colon carcinoma cells for O=C(Nc1cc2cc(-c3cnco3)ccc2cn1)[C@@H]1CCCNC1
[reply] 6.37

[ask] Value wanted: pEC50 (Wnt pathway (Sp5-Luc reporter, TCF/LEF binding sites) in SW480 colon carcinoma cells) of entry Cn1cc(-c2ccc3cnc(NC(=O)CN4CCCCC4)cc3c2)nn1
[reply] 5.29
